Values compiled from PubChem BioAssay.

# maps each entry to its superoxide response (% of plate)
Assay: superoxide lowering in aged yeast cells, pilot screen, validation compound set (AID 2706);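 note: yeast exposed to compound for one week at 30 degrees C before staining; 100% = mean of all compound wells on the same plate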
Conditions: S. cerevisiae aging, superoxide DHE fluorescence; at 10 µM, stronger effect = lower value
Active and inactive are the calls of the source.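 Rule for the calls: active = superoxide response below 65% of plate, a cut near 3 SD across the whole screen; inactive = the rest.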

Examples with answers:
>>> readout_value("COc1ccc(C(=O)/C=C/c2cc(C(=O)O)cc3c2OCOC3)c(O)c1")
"99.9% (inactive)"
>>> readout_value("COc1c2occc2c(OC)c2c(=O)cc(C)oc12")
"108% (inactive)"
>>> readout_value("CCOc1ccc(NC(=O)N[C@@H](CCSC)C(=O)OC)cc1")
"117% (inactive)"
>>> readout_value("CCN(CC)C(=O)c1ccc(O)c(OC)c1")
"89% (inactive)"

Exercise: Query: superoxide response (% of plate); subject: Cc1ccc2c(c1)c1c3n2CCCNC3CCC1 (stereo unspecified)
Key: 85.7% (inactive)

Exercise: Query: superoxide response (% of plate); subject: C[N+](C)(C)CCOP(=O)(O)OP(=O)([O-])OC[C@H]1O[C@@H](n2ccc(N)nc2=O)[C@H](O)[C@@H]1O
Key: 89.1% (inactive)

Exercise: Query: superoxide response (% of plate); subject: Clc1ccc(OCCCN2CCCCC2)c(Br)c1
Key: 88.5% (inactive)

Exercise: Query: superoxide response (% of plate); subject: OC[C@H]1O[C@@H](n2cnc3c(Nc4ccccc4)ncnc32)[C@H](O)[C@@H]1O
Key: 110% (inactive)

Exercise: Query: superoxide response (% of plate); subject: COC(=O)c1ccc(CC(=O)c2ccc(O)cc2O)o1
Key: 93.2% (inactive)

Exercise: Query: superoxide response (% of plate); subject: Nc1ccc(N)c(C(=O)O)c1
Key: 79% (inactive)

Exercise: Query: superoxide response (% of plate); subject: Cc1cccc(C)c1NS(=O)(=O)c1ccc(NC(=O)c2ccc(Cl)c([N+](=O)[O-])c2)cc1
Key: 103% (inactive)

* * *

Target: ATP-binding cassette sub-family B member 6 (Homo sapiens)
Test: ABCB6 transporter inhibitors, pilot screen, K562-ABCB6 cells, flow cytometry, validation set (AID 588550);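 note: 0% = DMSO wells and 100% = benzethonium chloride 70 µM positive control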
Conditions: K562-ABCB6 porphyrin accumulation, 1 h, at 10 µM, stronger effect = higher value
recorded.endpoint: inhibition (%)
I only need the number, in %, no unit after it.

Examples with answers:
>>> readout_value("O=C1CC(c2ccc(F)cc2)Cc2nc(NCC3CCCO3)ncc21 (configuration not stated)")
7
>>> readout_value("Cc1c(OC(=O)CNC(=O)OC(C)(C)C)ccc2c3c(c(=O)oc12)CCC3")
1

Exercise: Query: inhibition; subject: O=C(O)/C=C/c1ccc(O)c(O)c1
Key: 4

Exercise: Query: inhibition; subject: O=C(c1cc2cc(Br)ccc2o1)N1CCCCC1
Key: 6

* * *

# maps each entry to its GFP response relative to DMSO
Assay: LAP4-GFP expression modulators in yeast, confirmation, cell-based, cherry picks, flow cytometry, mother/daughter gates (AID 2271);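 note: ratio of sample to DMSO plate mean so 100% equals DMSO level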
Details: S. cerevisiae LAP4-GFP strain, 3 h, measured here: mother cell gate response, at 10 µM, stronger effect = higher value, 100 means same as DMSO control
Entry format: amount then unit.

Examples with answers:
>>> readout_value("O=C(CCc1ccccc1)NNC(=S)NC(=O)c1ccccc1")
"185%"
>>> readout_value("O=C(Nc1nc(-c2ccc(Cl)s2)cs1)c1cccs1")
"119%"
>>> readout_value("CCCc1[nH]nc2c1C(c1cccc(OC(=O)c3ccco3)c1)C(C#N)=C(N)O2 (stereo unspecified)")
"98.4%"
>>> readout_value("CCOC(=O)c1c(C)oc2c1c(C(c1ccncc1)N1CCOCC1)c(O)c1ccccc12 (stereo unspecified)")
"180%"
>>> readout_value("COc1cc(NC(=O)c2ccccc2)ccc1NC(=O)c1cc2ccccc2o1")
"92.3%"
>>> readout_value("Cc1cccc(C(=O)Nc2ccc(O)cc2)c1")
"101%"

Exercise: Query: GFP response relative to DMSO; subject: COc1cccc(CC(=O)OC(C)C(=O)Nc2ncc(Cl)cc2Cl)c1 (stereo unspecified)
Key: 97.2%

Exercise: Query: GFP response relative to DMSO; subject: CC(=O)Nc1c(-c2ccc(F)cc2)nc2ccccn12
Key: 108%

* * *

Assay: RPL19A-GFP modulators, yeast TOR pathway, confirmation, cell-based, S. cerevisiae, flow cytometry, cherry picks, mother/daughter gates (AID 2270)
Conditions: S. cerevisiae RPL19A-GFP strain, 3 h, at 10 µM, stronger effect = lower value, 100 = same GFP as DMSO wells
The source made the active and inactive calls.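 The calls were made as follows: active = GFP response below 50% of the DMSO control; inconclusive = fewer than 70 events counted for a yeast strain; inactive = the rest.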
# maps each entry to its GFP response vs DMSO

>>> readout_value("Cc1ccc(C(=O)NNC(=S)NC(=O)COc2ccccc2)cc1")
"122% (inactive)"
>>> readout_value("O=C(COC(=O)c1n[nH]c2ccccc12)c1ccc(F)c(F)c1")
"97.1% (inactive)"
>>> readout_value("COC(=O)c1ccc(/C=N/NC(=O)c2cccc(F)c2)cc1")
"99.9% (inactive)"
>>> readout_value("Cc1c(O)nc(SC2CC(=O)N(c3ccccc3)C2=O)[nH]c1=O (stereo unspecified)")
"96.4% (inactive)"
>>> readout_value("COc1cc(/C=C2\\N=C(c3ccccc3)OC2=O)ccc1OCc1c(C)no[n+]1[O-]")
"103% (inactive)"

Exercise: Query: GFP response vs DMSO; subject: CCOC(=O)C(C(=O)OCC)C(C(=O)OCC)N1CCOCC1 (stereo unspecified)
Key: 74.1% (inactive)

Exercise: Query: GFP response vs DMSO; subject: CCOC(=O)C1(CCCc2ccccc2)CCN(C(=O)c2cc(C)nn2CC)CC1
Key: 99.3% (inactive)

Exercise: Query: GFP response vs DMSO; subject: O=C(NCC(c1ccc(F)cc1)N1CCOCC1)c1cc(F)c(F)c(F)c1F (stereo unspecified)
Key: 100% (inactive)

Exercise: Query: GFP response vs DMSO; subject: CCCCN(CCCC)S(=O)(=O)c1ccc(C(=O)Nc2nnc(COC)o2)cc1
Key: 106% (inactive)

Exercise: Query: GFP response vs DMSO; subject: CC(=O)Nc1ccc(S(=O)(=O)NC(CC(=O)NCCC2=CCCCC2)C(C)C)cc1 (stereo unspecified)
Key: 99.8% (inactive)

Exercise: Query: GFP response vs DMSO; subject: COc1ccc(N/N=C(\C#N)C(N)=O)cc1
Key: 83.7% (inactive)

* * *

# maps each entry to its GFP response vs DMSO
Assay: modulators of MEP2-GFP levels in yeast, confirmation, S. cerevisiae, flow cytometry GFP, cherry picks (AID 2272);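 note: ratio of well signal to plate DMSO mean so 100% equals DMSO level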
Conditions: S. cerevisiae MEP2-GFP strain, 3 h, at 10 µM, stronger effect = higher value
I only need the number, in %, no unit after it.

Examples with answers:
>>> readout_value("Cc1cc(C(=O)Nc2nc(-c3ccccn3)cs2)ccc1[N+](=O)[O-]")
107
>>> readout_value("Oc1ccc(-c2nc3ccccn3c2NCc2ccco2)cc1")
102
>>> readout_value("COc1ccc(N2C(=O)C(Cl)=C(Nc3c(C)n(C)n(-c4ccccc4)c3=O)C2=O)cc1")
99.5
>>> readout_value("CCn1c(=O)c(C(=O)NCCCO)c(O)c2ccccc21")
114
>>> readout_value("Cc1cc(=O)oc2c(C(=O)/C=C\\c3cccs3)c(O)ccc12")
107
>>> readout_value("Clc1ccccc1N=C1NN=C(c2cccs2)CS1")
90.5
>>> readout_value("CC(C)n1c(=S)[nH]c2c1c(=O)[nH]c(=O)n2C")
100
>>> readout_value("O=C(Nc1nc(-c2ccccc2)cs1)c1cccs1")
93.5
>>> readout_value("Cc1ccc(C(=O)Oc2oc(-c3ccccc3)nc2C=Nc2ccc(N(C)C)cc2)cc1")
105
>>> readout_value("O=C1Nc2ccccc2/C1=C\\C(=O)c1ccccc1")
128

Exercise: Query: GFP response vs DMSO; subject: COc1ccccc1Oc1ccc(S(=O)(=O)N2CCCC2)cc1
Key: 95.7

Exercise: Query: GFP response vs DMSO; subject: Cc1cc(O)c(C(=O)/C=C/c2c(F)c(F)c(F)c(F)c2F)c(=O)o1
Key: 109

Exercise: Query: GFP response vs DMSO; subject: Cc1ccc(/C(C#N)=C\c2ccc(N3CCOCC3)o2)cc1
Key: 109

Exercise: Query: GFP response vs DMSO; subject: O=C(/C=C/c1cc(Br)ccc1O)c1ccco1
Key: 122

Exercise: Query: GFP response vs DMSO; subject: O=C(c1cccc2ccccc12)N1CCN(c2ccccc2F)CC1
Key: 101

Exercise: Query: GFP response vs DMSO; subject: Cc1c(Br)c(O)c(Br)c2sc(=O)oc12
Key: 105

Exercise: Query: GFP response vs DMSO; subject: COc1ccc(CCNC2=C(Cl)C(=O)N(CCc3ccccc3)C2=O)cc1OC
Key: 102

Exercise: Query: GFP response vs DMSO; subject: CCN(CC)CCN(C(=O)c1ccc2c(c1)CCCC2)c1nc2cc(OC)c(OC)cc2s1
Key: 97.5

Exercise: Query: GFP response vs DMSO; subject: CCNC(=O)/C(C#N)=C/c1c(N2CCOCC2)nc2ccccn2c1=O
Key: 103

Exercise: Query: GFP response vs DMSO; subject: Cc1cccc(OCCCSc2nc3ccc(C)cc3[nH]2)c1
Key: 94.7

Exercise: Query: GFP response vs DMSO; subject: O=C(Nc1ccccc1O)c1ccc(Cl)cc1
Key: 102

Exercise: Query: GFP response vs DMSO; subject: CCCCCCCCn1c(=O)c(C(=O)OCC)c(O)c2ccccc21
Key: 100

Exercise: Query: GFP response vs DMSO; subject: COc1cc(NC(=O)c2ccc(C)cc2)ccc1NC(=O)c1cc2ccccc2o1
Key: 99

Exercise: Query: GFP response vs DMSO; subject: NC(=O)COc1ccc(C(=O)/C=C2/C(=O)Nc3ccccc32)cc1
Key: 94.1

Exercise: Query: GFP response vs DMSO; subject: CCOC(=O)c1c(C)oc2c1c(C(c1ccncc1)N1CCOCC1)c(O)c1ccccc12 (stereo unspecified)
Key: 131

Exercise: Query: GFP response vs DMSO; subject: Cc1cccc(Nc2nc(-c3ccccn3)cs2)n1
Key: 110

Exercise: Query: GFP response vs DMSO; subject: COc1ccc(CNC(=O)c2nc(S(=O)(=O)Cc3ccccc3)ncc2Cl)cc1
Key: 116

Exercise: Query: GFP response vs DMSO; subject: O=C(CSc1nnc(-c2ccccn2)n1Cc1ccccc1)N1CCOCC1
Key: 108
